Cited source: patent US5714516A

procedure-summary: Cytotoxicity to C8166 cells in HIV assays
Type: cell-based
experimental-setup: human, c8166 cells, Table 2; DMSO; St. Bartholomew's; read-out: TC50, HIV antigen assay
Method: The effect of 2-hydroxymyristic acid (2-HM) on VZV or HIV when solubilized in a variety of solvents was observed using the methods approved for the Medical Research Council AIDS Directed Programme as described in H. C. Holmes et al., Antiviral Chem. & Chemother. (1991), 2(5), 287-293, using concentrations of 2 HM from 0.08to 1000 μM. […] Assays were scored by recording the presence or absence of syncytium formation. […]
property-measured: CC50

What value of measured CC50 is listed for CCCCCCCCCCCCC(O)C(=O)O (racemic) [2-hydroxymyristic acid] ?
> 400 µM

----------
procedure-summary: in vitro
experimental-setup: human, mewo cells
property-measured: CC50

Need CC50, item CCCCCCCCCCCCC(O)C(=O)O (racemic) [2-hydroxymyristic acid]
> 200 µM

----------
procedure-summary: Cytotoxicity to C8166 cells in HIV assays
Type: cell-based
experimental-setup: human, c8166 cells, Table 2; Ethanol; Mill Hill; antigen assay; read-out: TC50, HIV antigen assay
Experimental: The effect of 2-hydroxymyristic acid (2-HM) on VZV or HIV when solubilized in a variety of solvents was observed using the methods approved for the Medical Research Council AIDS Directed Programme as described in H. C. Holmes et al., Antiviral Chem. & Chemother. (1991), 2(5), 287-293, using concentrations of 2 HM from 0.08to 1000 μM. […] Assays were scored by recording the presence or absence of syncytium formation. […]
property-measured: CC50 (µM)
Answer format: numeric, µM implied, no suffix.

// lookup CC50 for CCCCCCCCCCCCC(O)C(=O)O (racemic) [2-hydroxymyristic acid]
192

----------
Test system: HIV
procedure-summary: HIV virus titration (back titration, syncytium formation in C8166 cells)
Type: cell-based
experimental-setup: Human immunodeficiency virus 1, C8166; Table 2; Ethanol; Mill Hill
property-measured: IC50 (µM)
Your answer should be a plain number; it is taken to be in µM.

Endpoint output: IC50 of CCCCCCCCCCCCC(O)C(=O)O (racemic) [2-hydroxymyristic acid] . Value?
3.9

----------
procedure-summary: Crystallisation from aqueous solution / medium
Format: physicochemical
experimental-setup: aqueous solution; aqueous solutions; read-out: Concentration above which 2-HM crystallises from aqueous solutions
property-measured: solubility

Endpoint output: solubility of CCCCCCCCCCCCC(O)C(=O)O (racemic) [2-hydroxymyristic acid] . Value?
80 to 100 µM
